- Experimental target: human Nav1.6 (hNav1.6) (Homo sapiens, UniProt Q9UQD0)
- Construct: expressed in transfected cells; host or cells: HEK-293
- Sequence (Q9UQD0 whole entry): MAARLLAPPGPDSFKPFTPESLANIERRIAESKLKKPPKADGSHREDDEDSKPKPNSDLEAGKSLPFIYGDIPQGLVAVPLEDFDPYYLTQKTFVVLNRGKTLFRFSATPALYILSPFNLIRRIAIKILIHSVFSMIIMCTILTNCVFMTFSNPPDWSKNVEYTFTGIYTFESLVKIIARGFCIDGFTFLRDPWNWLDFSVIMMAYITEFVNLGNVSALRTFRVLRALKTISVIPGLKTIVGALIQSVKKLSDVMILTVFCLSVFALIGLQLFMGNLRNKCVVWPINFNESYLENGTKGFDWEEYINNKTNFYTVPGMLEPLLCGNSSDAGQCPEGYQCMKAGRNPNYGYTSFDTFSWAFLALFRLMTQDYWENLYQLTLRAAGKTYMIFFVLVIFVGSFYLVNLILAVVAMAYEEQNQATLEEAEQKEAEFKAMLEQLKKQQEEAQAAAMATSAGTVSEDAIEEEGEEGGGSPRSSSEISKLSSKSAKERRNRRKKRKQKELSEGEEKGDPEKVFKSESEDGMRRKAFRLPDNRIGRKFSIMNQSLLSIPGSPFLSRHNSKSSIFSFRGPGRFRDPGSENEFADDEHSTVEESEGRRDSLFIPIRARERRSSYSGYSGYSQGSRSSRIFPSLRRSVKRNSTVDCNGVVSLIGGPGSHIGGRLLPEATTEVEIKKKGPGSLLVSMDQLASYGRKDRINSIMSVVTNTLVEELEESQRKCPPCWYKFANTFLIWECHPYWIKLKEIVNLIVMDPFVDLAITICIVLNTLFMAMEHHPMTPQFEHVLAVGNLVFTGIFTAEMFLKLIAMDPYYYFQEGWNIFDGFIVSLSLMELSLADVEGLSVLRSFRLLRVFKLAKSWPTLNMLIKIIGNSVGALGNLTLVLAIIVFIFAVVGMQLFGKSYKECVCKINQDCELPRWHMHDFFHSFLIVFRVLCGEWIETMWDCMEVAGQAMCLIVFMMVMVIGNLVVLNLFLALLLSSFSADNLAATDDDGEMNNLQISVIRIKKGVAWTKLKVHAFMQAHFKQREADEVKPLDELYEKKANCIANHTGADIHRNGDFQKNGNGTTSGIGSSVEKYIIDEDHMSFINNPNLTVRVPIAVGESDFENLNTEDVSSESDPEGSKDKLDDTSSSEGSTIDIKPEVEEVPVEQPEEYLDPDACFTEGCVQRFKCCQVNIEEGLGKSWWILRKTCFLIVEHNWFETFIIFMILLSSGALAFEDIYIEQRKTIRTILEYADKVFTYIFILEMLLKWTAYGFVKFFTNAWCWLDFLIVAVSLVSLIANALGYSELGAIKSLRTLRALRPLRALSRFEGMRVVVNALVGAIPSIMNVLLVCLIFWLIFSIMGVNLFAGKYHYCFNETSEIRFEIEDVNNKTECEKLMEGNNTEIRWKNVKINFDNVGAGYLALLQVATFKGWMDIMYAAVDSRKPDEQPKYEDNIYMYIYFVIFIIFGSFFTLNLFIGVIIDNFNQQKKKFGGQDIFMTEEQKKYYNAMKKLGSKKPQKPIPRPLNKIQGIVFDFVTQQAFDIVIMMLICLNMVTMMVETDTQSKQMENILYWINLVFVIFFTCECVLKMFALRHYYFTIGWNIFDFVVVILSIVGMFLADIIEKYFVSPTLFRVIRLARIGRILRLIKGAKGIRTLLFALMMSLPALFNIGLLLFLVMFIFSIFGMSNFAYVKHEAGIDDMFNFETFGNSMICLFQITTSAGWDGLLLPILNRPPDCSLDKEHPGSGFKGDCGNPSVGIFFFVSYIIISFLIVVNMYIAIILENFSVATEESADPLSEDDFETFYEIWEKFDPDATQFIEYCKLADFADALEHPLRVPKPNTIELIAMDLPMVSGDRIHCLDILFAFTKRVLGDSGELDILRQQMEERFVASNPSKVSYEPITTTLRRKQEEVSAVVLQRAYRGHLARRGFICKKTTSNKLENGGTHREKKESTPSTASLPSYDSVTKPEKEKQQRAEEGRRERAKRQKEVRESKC
- Procedure text: Modulation of late sodium current (INaL), PatchXpress high throughput electrophysiology
- Format: cell-based
- Condition parameters: HEK293; 1 μM compound; HEK-293 cells expressing recombinant hNav1.6; late current evoked by 300 nM ATX-II
Each item that follows carries a reported inhibition at 1 µM.

>  <Compound>
FC(F)(F)Oc1ccc(-c2cnc3ncc(C(F)(F)F)n3c2)cc1

>  <inhibition at 1 µM>
< 50%

$$$$
>  <Compound>
FC(F)(F)Oc1ccc(-c2ccc3nccn3n2)cc1

>  <inhibition at 1 µM>
< 50%

$$$$
>  <Compound>
FC(F)(F)Oc1ccc(-c2cc3c(C(F)(F)F)cnn3cn2)cc1 [Compound 25a]

>  <inhibition at 1 µM>
> 50%

$$$$
>  <Compound>
COc1cc(OC(F)(F)F)ccc1-c1ccc2ncc(C(F)(F)F)n2c1

>  <inhibition at 1 µM>
> 50%

$$$$
>  <Compound>
FC(F)(F)COc1ccc(-c2ccn3ncc(C(F)(F)F)c3c2)cn1

>  <inhibition at 1 µM>
> 50%

$$$$
>  <Compound>
COCc1cc(OC(F)(F)F)ccc1-c1cn2c(C(F)(F)F)cnc2cn1

>  <inhibition at 1 µM>
> 50%

$$$$
>  <Compound>
Cc1cc(OC(F)(F)F)ccc1-c1cc2c(C(F)(F)F)cnn2cn1

>  <inhibition at 1 µM>
< 50%

$$$$
>  <Compound>
COC(C)(C)c1ccc(-c2ccn3ncc(C(F)(F)F)c3c2)cc1

>  <inhibition at 1 µM>
< 50%

$$$$

Item FC(F)(F)Oc1ccc(-c2cnc3nccn3c2)cc1 ; assay system human Nav1.6 (hNav1.6) (Homo sapiens, UniProt Q9UQD0); inhibition at 1 µM reported as < 50%

Measured on human Nav1.6 (hNav1.6) (Homo sapiens, UniProt Q9UQD0), FC(F)(F)Oc1ccc(-c2ccc3ncc(C(F)(F)F)n3n2)cc1 has a documented inhibition at 1 µM of < 50%

Item: FC(F)(F)Oc1ccc(-c2cnn3nccc3c2)cc1 | System: human Nav1.6 (hNav1.6) (Homo sapiens, UniProt Q9UQD0) | inhibition at 1 µM: < 50%

Reported inhibition at 1 µM (human Nav1.6 (hNav1.6) (Homo sapiens, UniProt Q9UQD0)) for entry Fc1cc(-c2cn3c(C(F)(F)F)cnc3cn2)cnc1OCC(F)(F)F is > 50%

# inhibition at 1 µM measured on human Nav1.6 (hNav1.6) (Homo sapiens, UniProt Q9UQD0) for item N#CC1(c2ccc(-c3ccn4ncc(C(F)(F)F)c4c3)cc2)CC1 = < 50%

// compound COc1cc(OC(F)(F)F)ccc1-c1ccn2ncc(C(F)(F)F)c2c1 , assay human Nav1.6 (hNav1.6) (Homo sapiens, UniProt Q9UQD0), inhibition at 1 µM value: > 50%

Here FC(F)(F)COc1ccc(-c2ccc3ncc(C(F)(F)F)n3c2)cn1 was tested on human Nav1.6 (hNav1.6) (Homo sapiens, UniProt Q9UQD0), and its inhibition at 1 µM came to > 50%

Log: human Nav1.6 (hNav1.6) (Homo sapiens, UniProt Q9UQD0), compound COC(C)(C)c1ccc(-c2ccc3ncc(C(F)(F)F)n3c2)cc1 , inhibition at 1 µM = > 50%
